- TEST_SYSTEM: human recombinant MC1R (CHO-K1 stable cell line, GenScript) (human, UniProt Q01726 1-317)
- Sequence (Q01726 whole entry): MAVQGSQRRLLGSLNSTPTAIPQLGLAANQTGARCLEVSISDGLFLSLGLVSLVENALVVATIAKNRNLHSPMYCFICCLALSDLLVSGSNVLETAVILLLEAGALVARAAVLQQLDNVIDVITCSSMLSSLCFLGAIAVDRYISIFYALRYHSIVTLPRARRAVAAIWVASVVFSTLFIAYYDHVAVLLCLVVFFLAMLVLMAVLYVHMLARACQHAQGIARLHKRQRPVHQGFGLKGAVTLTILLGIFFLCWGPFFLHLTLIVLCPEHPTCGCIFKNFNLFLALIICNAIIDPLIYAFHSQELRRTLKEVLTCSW
- PROTOCOL_TEXT: cell-based or functional assay
Positions of bridges follow the written chain, without caps; N, C: chain ends. Non-standard residues stand in square brackets, D forms with d. *: point of attachment. Benzoyl(3,5-(OH)2) = O=C(c1cc(O)cc(O)c1)*; Lys(N3) = [N-]=[N+]=NCCCC[C@H](N)C(=O)O; dPhe(4-F) = N[C@H](Cc1ccc(F)cc1)C(=O)O; NMeH = CN[C@@H](Cc1c[nH]cn1)C(=O)O; Nle = CCCC[C@H](N)C(=O)O; Pra = C#CC[C@H](N)C(=O)O
MEASURE: MC1R IC50

Known MC1R IC50 results, listed for orientation:
MC1R IC50 in this record for Ac-MEHFRWGKPV-NH2 [KR-003] : 0.13 nM

MC1R IC50 in this record for Ac-[Lys(N3)]EHFRWG[Pra]-NH2 (triazole 1-8) [KR-010] : 170 nM

MC1R IC50 in this record for {Benzoyl(3,5-(OH)2)}-[Nle][Lys(N3)]H[dPhe(4-F)]RW[Pra]-NH2 (triazole 2-7; not fully specified; printed as HyBA-Nle-[Lys(N3)-His-Dphe(4-F)-Arg-Trp-Pra]-NH2) [KR-072] : 0.0019 nM

More entries:
MC1R IC50 in this record for Ac-[Nle][Lys(N3)]H[dF]RW[Pra]-NH2 (bridge 2-7; not fully specified (bridges); printed as Ac-Nle-[Lys(N3)-His-DPhe-Arg-Trp-Pra]-NH2) [KR-009] : 0.0109 nM

MC1R IC50 in this record for Ac-[Nle][Lys(N3)][NMeH][dF]RW[Pra]-NH2 (triazole 2-7) [KR-043] : 0.15 nM
